Listed here: items and their measured cell viability.
system: P12-Ichikawa; assay: cell viability relative to DMSO control; higher = less cytotoxic; details: HPLM + 10% dialyzed FBS; 48 h; 0.19 µM

compound	cell viability (%)
CC(C)(C)NC(=O)Nc1cccc(Nc2ncc(F)c(NC(C)(C)CO)n2)c1	121
Cc1onc(-c2ccccc2Cl)c1C(=O)N[C@@H]1C(=O)N2[C@@H]1SC(C)(C)[C@@H]2C(=O)[O-]	113
O=C1c2ccccc2-[n+]2ccc3c([nH]c4ccccc43)c21	106
CC(C)C1NC(=O)C(NC(=O)C2=C3\N=C\4/C(=C(C)\C(=O)\C(=C4C(=O)NC5C(C)OC(=O)C(C(C)C)N(C)C(=O)CN(C)C(=O)C6CCCN6C(=O)C(NC5=O)C(C)C)N)OC3=C(C)C=C2)C(C)OC(=O)C(C(C)C)N(C)C(=O)CN(C)C(=O)C7CCCN7C1=O (stereo not drawn)	7.48
OC[C@H]1O[C@H]([C@H](O)[C@@H]1O)N2\C=C/C(=O)NC2=O	104
CCC[S+]([O-])c1ccc2[nH]c(NC(=O)OC)nc2c1 (stereo not drawn)	92.7
CC(C)OC(=O)/C1=C/N(CC(C)(C)C2=C1[NH]C3=CC=CC=C23)C(=O)C4=CC=C(F)C(=C4)F	83.4
CC[S+](=O)([O-])c1cccc(-c2cc(C(=O)NC3CCN(C)CC3)c(C)c3[nH]c4ncc(C)cc4c23)c1	112

* * *

Listed here: items and their measured cell viability.
tested on: P12-Ichikawa; assay: cell viability relative to DMSO control; higher = less cytotoxic; details: RPMI 5 mM glucose + 10% FBS; 48 h; 0.00234 µM
measured.property: cell viability (%)

> print(dat)
                                   compound  value.measured
1  N[S+]([O-])(=O)C1=C(Cl)C=C2\N=C/N[S+]([O-])(=O)C2=C1             106
2  Clc1ccc(-c2nc3sccn3c2/C=N/OCc2ccc(Cl)c(Cl)c2)cc1             113
3  CC(C)c1ccc2c(c1)c(SC(C)(C)C)c(CC(C)(C)C(=O)[O-])n2Cc1ccc(Cl)cc1            91.5
4  CNC(=O)c1ccc2cc(C3(O)CCn4cncc43)ccc2c1 (stereo not given)             127
5  Cc1c(C)n(Cc2ccc(-c3ccccc3C(=O)O)cc2)c2ccc(C(=O)N[C@@H](C)c3ccc([N+](=O)[O-])cc3)cc12             104

* * *

system: SEM cells; assay: cell viability relative to DMSO control; higher = less cytotoxic; conditions: RPMI 5 mM glucose + 10% FBS; 48 h; 46.1 µM

molecule	unit.string	cell viability
O=C(c1ccc(OCCN2CCCCC2)cc1)c1c(-c2ccc(O)cc2)sc2cc(O)ccc12	%	68.9
COc1ccccc1OCC(O)COC(N)=O (configuration not stated)	%	99.4
CCc1ccc(CCOc2ccc(CC3SC(=O)NC3=O)cc2)nc1 (configuration not stated)	%	80.7
O=C(O)C1(Cc2cccc(Nc3nccs3)n2)CCC(Oc2cccc(Cl)c2F)CC1 (configuration not stated)	%	12.7
C[C@H]1COC2=C3N1\C=C(C(O)=O)/C(=O)C3=CC(=C2N4CCN(C)CC4)F	%	31.9
CN(C)[S+](=O)([O-])c1ccc2c(c1)C(=Cc1cc3c([nH]1)CCCC3)C(=O)N2	%	94.7
ClC1=CC=C(C=C1)C(C#N)C2=C(Cl)C=C(C=C2Cl)N3\N=C/C(=O)NC3=O (configuration not stated)	%	76.7
CCC[S+]([O-])c1ccc2[nH]c(NC(=O)OC)nc2c1 (configuration not stated)	%	32.2
CC1(C)O[C@@H]2C[C@H]3[C@@H]4C[C@H](F)C5=CC(=O)C=C[C@]5(C)[C@@]4(F)[C@@H](O)C[C@]3(C)[C@]2(C(=O)CO)O1	%	53.7
CNCC(O)c1ccc(O)cc1 (configuration not stated)	%	111
O=C(Nc1cc(Cl)cc2c1[nH]c1cnccc12)c1cccnc1	%	124
CC[S+](=O)([O-])c1cccc(-c2cc(C(=O)NC3CCN(C)CC3)c(C)c3[nH]c4ncc(C)cc4c23)c1	%	5.92
FC1=C(C=C(C\C2=N\NC(=O)C3=C2C=CC=C3)C=C1)C(=O)N4CCN(CC4)C(=O)C5CC5	%	26.5
CCN1CCN(c2ccc(Nc3cc(N(C)C(=O)Nc4c(Cl)c(OC)cc(OC)c4Cl)ncn3)cc2)CC1	%	1.95
CCOC(=O)[C@@H](N)Cc1ccc(-c2cc(O[C@H](c3ccc(Cl)cc3-n3ccc(C)n3)C(F)(F)F)nc(N)n2)cc1.O=C(O)CNC(=O)c1ccccc1	%	17.1
c1ccc2[nH]c(-c3cscn3)nc2c1	%	71.7
Cc1c(C)n(Cc2ccc(-c3ccccc3C(=O)O)cc2)c2ccc(C(=O)N[C@@H](C)c3ccc([N+](=O)[O-])cc3)cc12	%	110
CCN(CC)CCOc1ccc(/C(=C(\Cl)c2ccccc2)c2ccccc2)cc1	%	91.6
COC(=O)Nc1nc2cc(C(=O)c3ccccc3)ccc2[nH]1	%	19.2
CC1CNc2c(cccc2[S+](=O)([O-])N[C@@H](CCCNC(=N)N)C(=O)N2CC[C@@H](C)C[C@@H]2C(=O)O)C1 (some centres not stated)	%	103
CNC(=O)c1c(-c2ccc(F)cc2)oc2cc(N(CCO)[S+](C)(=O)[O-])c(C3CC3)cc12	%	1.22
CC(C)(C)OC(=O)N[C@H]1CCCCC/C=C\[C@@H]2C[C@@]2(C(=O)N[S+](=O)([O-])C2CC2)NC(=O)[C@@H]2C[C@@H](OC(=O)N3Cc4cccc(F)c4C3)CN2C1=O	%	85.4
